Provenance of the data: patent US20180207228A1

# Target or system: 25 HLA Class II alleles (purified class II MHC molecules)
# Assay info: competitive radiolabelled-peptide binding to purified HLA class II (25 alleles, binder if IC50 <300 nM); worldwide phenotypic coverage of the alleles found to bind
Reported Measured binding coverage 25 alleles values follow for various binders
Reply with just the number (in %).

Consider the reported Measured binding coverage 25 alleles for these binders:
WLDAKSTWYGKPTGAGPKDN [peptide 201 (Phl p 1, 18)] | 47
EWVAMTKGEGGVWTFDSEEP [peptide 214 (Phl p 2, 40)] | 81
SMGDDHFWAVRGGGGESFGI [peptide 226 (Phl p 4, 195)] | 57

We now examine a further binder.
Problem: Return Measured binding coverage 25 alleles (reported value) for this binder: TKKGNVWEVKSSKPLVGPFN [peptide 219 (Phl p 3, 47)]
Solution: 91
